assay.notes: The activity was measured in mice after oral administration of the compound
Type: ADME
test.context: mouse, in vivo
reported.endpoint: LD50 (mg/kg)

[[record]]
line_notation = "CC1=C(/C=C/C(C)=C/C=C/C(C)=C/C=C/C=C(C)/C=C/C=C(C)/C=C/C2=C(C)CCCC2(C)C)C(C)(C)CCC1"
reported_endpoint = "LD50"
numeric_result = 6750


====

assay.notes: Compound was tested for its toxicity after intravenous administration to mice in experiment 2
test.context: mouse, in vivo
reported.endpoint: LD50

[[record]]
compound = "CC(C)(C)NCC(O)COc1cccc2c1CCC(=O)N2 (stereo not drawn)"
result = "39.4 mg/kg"

[[record]]
compound = "CC(C)(C)NCC(O)COc1ccc(NC(=O)NC2CCCCC2)cc1 (stereo not drawn)"
result = "25.8 mg/kg"

[[record]]
compound = "Cc1cc2c(OCC(CNC(C)(C)C)OC(=O)c3ccccc3)cccc2[nH]1 (stereo not drawn)"
result = "15.9 mg/kg"

[[record]]
compound = "CC(C)NCC(O)COc1ccc(CCOCC2CC2)cc1 (stereo not drawn)"
result = "38 mg/kg"

[[record]]
compound = "CC(=O)Oc1c(C)cc(OCC(O)CNC(C)C)c(C)c1C (stereo not drawn)"
result = "38.8 mg/kg"

[[record]]
compound = "CCN(CC)C(=O)Nc1ccc(OCC(O)CNC(C)(C)C)c(C(C)=O)c1 (stereo not drawn)"
result = "42.8 mg/kg"

[[record]]
compound = "CC(C)(C)NCC(O)CSc1nc(-c2ccc(C(N)=O)s2)cs1 (stereo not drawn)"
result = "57.8 mg/kg"

[[record]]
compound = "Cc1ccc(OCC(O)CNC(C)(C)C)c2oc(=O)ccc12 (stereo not drawn)"
result = "46.8 mg/kg"

